Value source: patent US20260347353A1

target: p53 Y220C (Homo sapiens, UniProt P04637, Y220C); test: Luciferase Reporter Assay, p53 Y220C (NCIH1299 cells with inducible p53 Y220C and p53 response element-luciferase); assay type: cell-based; details: 6 hour compound treatment, read-out: Luc P53 Y220C AC50
Observation Type: AC50

Use these answered entries as a reference point.
{"columns": ["Compound Structure String", "Target Under Test", "AC50"],
 "data": [
  ["CN1CC[C@@H](Nc2cccn3c(SC(F)(F)F)c(-c4noc(CNC(=O)c5ccc6[nH]cc(C#N)c6c5)n4)cc23)[C@@H](F)C1", "p53 Y220C (Homo sapiens, UniProt P04637, Y220C)", "0.75 to 1.5 µM"],
  ["CN1CC[C@@H](Nc2cccn3c(SC(F)(F)F)c(-c4noc(CNC(=O)[C@H]5COCCO5)n4)cc23)[C@@H](F)C1", "p53 Y220C (Homo sapiens, UniProt P04637, Y220C)", "0.75 to 1.5 µM"],
  ["CN1CC[C@@H](Nc2cccn3c(SC(F)(F)F)c(-c4cc(CNC(=O)C5CC5)no4)cc23)[C@@H](F)C1", "p53 Y220C (Homo sapiens, UniProt P04637, Y220C)", "0.75 to 1.5 µM"],
  ["Cc1c(C(=O)NCc2nc(-c3cc4c(N[C@@H]5CCN(C)C[C@@H]5F)cccn4c3SC(F)(F)F)no2)sc2nc[nH]c(=O)c12", "p53 Y220C (Homo sapiens, UniProt P04637, Y220C)", "1.5 to 3 µM"],
  ["CN1CC[C@@H](Nc2cccn3c(SC(F)(F)F)c(-c4noc(CNC(=O)c5ccc6c(c5)NC(=O)CN6C)n4)cc23)[C@@H](F)C1", "p53 Y220C (Homo sapiens, UniProt P04637, Y220C)", "< 0.75 µM"]
]}

-- ask # AC50 lookup, item `CN1CC[C@@H](Nc2cccn3c(SC(F)(F)F)c(-c4noc(CNC(=O)c5cnc(N6CCOCC6)o5)n4)cc23)[C@@H](F)C1`
-- reply < 0.75 µM

====

Reported values of AC50 for individual entries
molecular target: p53 Y220C (Homo sapiens, UniProt P04637, Y220C); assay: Luciferase Reporter Assay, p53 Y220C (NCIH1299 cells with inducible p53 Y220C and p53 response element-luciferase); type: cell-based; settings: 6 hour compound treatment, read-out: Luc P53 Y220C AC50

{"columns": ["Compound Structure String", "Target Under Test", "AC50"],
 "data": [
  ["CN1CC[C@@H](Nc2cccn3c(SC(F)(F)F)c(-c4noc(CNC(=O)C5(c6ccc(F)cc6)CC5)n4)cc23)[C@@H](F)C1", "p53 Y220C (Homo sapiens, UniProt P04637, Y220C)", "≥ 3000 nM"],
  ["CN1CC[C@@H](Nc2cccn3c(SC(F)(F)F)c(-c4noc(CNC(=O)c5sccc5OC(F)F)n4)cc23)[C@@H](F)C1", "p53 Y220C (Homo sapiens, UniProt P04637, Y220C)", "750 to 1500 nM"],
  ["CN1CC[C@@H](Nc2cccn3c(SC(F)(F)F)c(-c4noc(CNC(=O)c5ccn(C6(C)CCOCC6)c5)n4)cc23)[C@@H](F)C1", "p53 Y220C (Homo sapiens, UniProt P04637, Y220C)", "< 750 nM"],
  ["CN1CC[C@@H](Nc2cccn3c(SC(F)(F)F)c(-c4noc(CNC(=O)c5csc(N6CCOCC6)n5)n4)cc23)[C@@H](F)C1", "p53 Y220C (Homo sapiens, UniProt P04637, Y220C)", "< 750 nM"],
  ["CN1CC[C@@H](Nc2cccn3c(SC(F)(F)F)c(-c4noc(CNC(=O)c5ccc(S(C)(=O)=O)cc5)n4)cc23)[C@@H](F)C1", "p53 Y220C (Homo sapiens, UniProt P04637, Y220C)", "< 750 nM"]
]}

-- ask # AC50 lookup, item `CNC(=O)c1ccc(NCc2nc(-c3cc4c(N[C@@H]5CCN(C)C[C@@H]5F)cccn4c3SC(F)(F)F)no2)nc1`
-- reply < 750 nM

-- ask Would you kindly repeat that for `CN1CC[C@@H](Nc2cccn3c(SC(F)(F)F)c(-c4noc(CNC(=O)c5cnn(C)c5)n4)cc23)[C@@H](F)C1` ?
-- reply < 750 nM

-- ask Would you kindly repeat that for `CN1CC[C@@H](Nc2cccn3c(SC(F)(F)F)c(-c4noc(CNC(=O)c5nsc(N(C)C)n5)n4)cc23)[C@@H](F)C1` ?
-- reply < 750 nM

-- ask Would you kindly repeat that for `Cc1ncc(C(=O)NCc2nc(-c3cc4c(N[C@@H]5CCN(C)C[C@@H]5F)cccn4c3SC(F)(F)F)no2)o1` ?
-- reply < 750 nM

-- ask Would you kindly repeat that for `CN1CC[C@@H](Nc2cccn3c(SC(F)(F)F)c(-c4noc(CNC(=O)[C@H]5COCCN5C)n4)cc23)[C@@H](F)C1` ?
-- reply ≥ 3000 nM
